system: ESBL-producing E. coli; assay: Susceptibility testing MIC/MBC, broth microdilution (Example 2); format: cell-based, Escherichia coli; conditions: Escherichia coli, E. coli isolate no. 5401; read-out: MIC
Would you mind telling me the reported MIC of each entry?
Could you give me the number in mg/L? Just the number is fine.

response.value for "NCC[C@H](O)C(=O)N[C@@H]1C[C@H](N)[C@@H](O[C@H]2O[C@H](CN)[C@@H](O)[C@H](O)[C@H]2O)[C@H](O)[C@H]1O[C@H]1O[C@H](CO)[C@@H](O)[C@H](N)[C@H]1O" (field: MIC) = 2

response.value for "CCO/N=C(\C(=O)N[C@@H]1C(=O)N2C(C(=O)[O-])=C(Sc3nc(-c4cc[n+](C)cc4)cs3)CS[C@H]12)c1nsc(N)n1" (field: MIC) = 4

response.value for "C[C@@H](O)[C@H]1C(=O)N2C(C(=O)O)=C(S[C@@H]3CN[C@H](C(=O)N(C)C)C3)[C@H](C)[C@H]12" (field: MIC) = 0.06

response.value for "C[C@H]1[C@H](NC(=O)/C(=N\OC(C)(C)C(=O)O)c2csc(N)n2)C(=O)N1S(=O)(=O)O" (field: MIC) = 0.25

response.value for CO/N=C(\C(=O)N[C@@H]1C(=O)N2C(C(=O)[O-])=C(C[N+]3(C)CCCC3)CS[C@H]12)c1csc(N)n1 [Cefepime] (field: MIC) = 4

response.value for "C[C@H]1COc2c(N3CCN(C)CC3)c(F)cc3c(=O)c(C(=O)O)cn1c23" (field: MIC) = 32

* * *

test system: ESBL-producing E. coli; test: Susceptibility testing MIC/MBC, broth microdilution (Example 2); format: cell-based, Escherichia coli; settings: Escherichia coli, E. coli isolate no. 5401; read-out: MBC
endpoint: MBC (µg/mL)
Could you give me the number in µg/mL? Just the number is fine.

response.value for "C[C@H]1COc2c(N3CCN(C)CC3)c(F)cc3c(=O)c(C(=O)O)cn1c23" (field: MBC) = 32

response.value for "CCO/N=C(\C(=O)N[C@@H]1C(=O)N2C(C(=O)[O-])=C(Sc3nc(-c4cc[n+](C)cc4)cs3)CS[C@H]12)c1nsc(N)n1" (field: MBC) = 8

response.value for CO/N=C(\C(=O)N[C@@H]1C(=O)N2C(C(=O)[O-])=C(C[N+]3(C)CCCC3)CS[C@H]12)c1csc(N)n1 [Cefepime] (field: MBC) = 4

response.value for "C[C@@H](O)[C@H]1C(=O)N2C(C(=O)O)=C(S[C@@H]3CN[C@H](C(=O)N(C)C)C3)[C@H](C)[C@H]12" (field: MBC) = 0.06

response.value for "NCC[C@H](O)C(=O)N[C@@H]1C[C@H](N)[C@@H](O[C@H]2O[C@H](CN)[C@@H](O)[C@H](O)[C@H]2O)[C@H](O)[C@H]1O[C@H]1O[C@H](CO)[C@@H](O)[C@H](N)[C@H]1O" (field: MBC) = 4

response.value for "C[C@H]1[C@H](NC(=O)/C(=N\OC(C)(C)C(=O)O)c2csc(N)n2)C(=O)N1S(=O)(=O)O" (field: MBC) = 0.25

* * *

system: ESBL-producing E. coli; assay: Susceptibility testing MIC/MBC, broth microdilution (Example 2); format: cell-based, Escherichia coli; details: E. coli (10) clinical isolates
endpoint: MIC range

response.value for CN(C)c1cc(NC(=O)CNC(C)(C)C)c(O)c2c1C[C@H]1C[C@H]3[C@H](N(C)C)C(O)=C(C(N)=O)C(=O)[C@@]3(O)C(O)=C1C2=O [Tigecycline] (field: MIC range) = 0.06 to 0.5 µg/mL

response.value for CCO/N=C(\C(=O)N[C@@H]1C(=O)N2C(C(=O)[O-])=C(Sc3nc(-c4cc[n+](C)cc4)cs3)CS[C@H]12)c1nsc(N)n1 [Ceftaroline] (field: MIC range) = 2 to 512 µg/mL

response.value for CO/N=C(\C(=O)N[C@@H]1C(=O)N2C(C(=O)[O-])=C(C[N+]3(C)CCCC3)CS[C@H]12)c1csc(N)n1 [Cefepime] (field: MIC range) = 0.125 to 256 µg/mL

response.value for C[C@H]1COc2c(N3CCN(C)CC3)c(F)cc3c(=O)c(C(=O)O)cn1c23 [Levofloxacin] (field: MIC range) = 0.03 to 32 µg/mL

response.value for C[C@@H](O)[C@H]1C(=O)N2C(C(=O)O)=C(S[C@@H]3CN[C@H](C(=O)N(C)C)C3)[C@H](C)[C@H]12 [Meropenem] (field: MIC range) = 0.03 to 0.06 µg/mL

response.value for NCC[C@H](O)C(=O)N[C@@H]1C[C@H](N)[C@@H](O[C@H]2O[C@H](CN)[C@@H](O)[C@H](O)[C@H]2O)[C@H](O)[C@H]1O[C@H]1O[C@H](CO)[C@@H](O)[C@H](N)[C@H]1O [Amikacin] (field: MIC range) = 1 to 16 µg/mL
